Data provenance is patent US9284317B2.

Biological target: human kinase Mps-1 (N-terminally GST-tagged human full length recombinant Mps-1 kinase) (Homo sapiens (Human), UniProt P33981)
Sequence (P33981 whole entry): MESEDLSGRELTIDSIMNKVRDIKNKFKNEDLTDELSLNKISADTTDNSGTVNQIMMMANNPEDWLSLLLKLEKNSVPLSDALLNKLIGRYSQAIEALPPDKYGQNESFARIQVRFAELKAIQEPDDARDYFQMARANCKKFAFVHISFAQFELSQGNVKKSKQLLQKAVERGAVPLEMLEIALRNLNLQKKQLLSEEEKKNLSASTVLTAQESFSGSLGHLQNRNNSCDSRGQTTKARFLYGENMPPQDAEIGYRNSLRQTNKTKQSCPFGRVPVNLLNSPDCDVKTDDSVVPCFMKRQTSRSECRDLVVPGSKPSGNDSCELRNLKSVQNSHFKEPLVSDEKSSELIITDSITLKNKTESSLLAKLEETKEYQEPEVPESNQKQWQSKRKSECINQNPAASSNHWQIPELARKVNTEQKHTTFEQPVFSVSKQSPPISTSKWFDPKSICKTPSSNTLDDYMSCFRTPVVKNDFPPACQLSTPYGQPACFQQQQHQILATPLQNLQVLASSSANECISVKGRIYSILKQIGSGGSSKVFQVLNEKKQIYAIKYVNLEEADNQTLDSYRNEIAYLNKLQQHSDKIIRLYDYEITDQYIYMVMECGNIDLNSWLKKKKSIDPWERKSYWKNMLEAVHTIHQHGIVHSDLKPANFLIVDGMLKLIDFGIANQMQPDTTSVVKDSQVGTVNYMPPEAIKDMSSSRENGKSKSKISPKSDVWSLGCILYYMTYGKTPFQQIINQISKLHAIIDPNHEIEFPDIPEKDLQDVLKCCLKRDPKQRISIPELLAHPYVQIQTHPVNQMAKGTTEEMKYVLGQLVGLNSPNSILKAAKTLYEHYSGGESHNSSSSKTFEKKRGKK
Assay: Mps-1 Kinase Assay (TR-FRET)
Conditions: 10 μM ATP, 1 μM biotinylated peptide substrate, 60 min at 22° C., read-out: Mps1 IC50
pIC50: −log10 of the molar value.
reported.property: pIC50

CC(C)CNc1nc(C2CCCC2)cn2c(-c3ccc(C(=O)NC4CC4)cc3)cnc12: 8.21
CC(C)CNc1nc(C2=CCCCC2)cn2c(-c3ccc(C(=O)NC4CC4)cc3)cnc12: 8.38
C/C=C/c1cn2c(-c3ccc(C(=O)NC4CC4)c(Cl)c3)cnc2c(NCC(C)C)n1: 7.14
CC(C)CNc1nc(C2CC=CCC2)cn2c(-c3ccc(C(=O)NC4CC4)cc3)cnc12 (centres unmarked): 8.55

[P] CC(C)(C)OC(=O)NCC#CCCNc1nc(-c2ccccc2)cn2c(-c3ccc(C(=O)NC4CC4)cc3)cnc12
[Q] C/C=C(\C)c1cn2c(-c3ccc(C(=O)NC4CC4)cc3)cnc2c(NCC(C)C)n1
[R] C/C=C(/C)c1cn2c(-c3ccc(C(=O)NC4CC4)cc3)cnc2c(NCC(C)C)n1
[S] C/C=C/c1cn2c(-c3ccc(C(=O)NC4CC4)c(F)c3)cnc2c(NCc2ccnn2C)n1
# rank by pIC50, ascending (min first) // rank by listing labels in the order requested P, S, Q, R
(P: 7.02, S: 7.50, Q: 8.39, R: 8.72)

---

Molecular target: human kinase Mps-1 (N-terminally GST-tagged human full length recombinant Mps-1 kinase) (Homo sapiens (Human), UniProt P33981)
Experiment: Mps-1 Kinase Assay (TR-FRET)
Settings: 10 μM ATP, 1 μM biotinylated peptide substrate, 60 min at 22° C., read-out: Mps1 IC50
reported.property: IC50 (nM)

Worked examples follow.
CC(C)CNc1nc(C2CCCCC2)cn2c(-c3ccc(C(=O)NC4CC4)cc3)cnc12 [Example 4-1]: 12.6
C/C=C/c1cn2c(-c3ccc(C(=O)NC4CC4)c(Cl)c3)cnc2c(NCC(C)(C)O)n1 [Example 1-12]: 132
C/C=C/c1cn2c(-c3ccc(C(=O)NC4CC4)c(F)c3)cnc2c(NCC(C)(C)O)n1 [Example 1-16]: 46.5
C/C=C/c1cn2c(-c3ccc(C(=O)NC4CC4)c(F)c3)cnc2c(NCC2CCCO2)n1 (stereo not drawn) [Example 1-17]: 99.2
CC(C)(C)OC(=O)NCCCNc1nc(-c2ccncc2)cn2c(-c3ccc(C(=O)NC4CC4)cc3)cnc12 [Example 2-1]: 8.3

[P] CC(C)CNc1nc(NC(=O)c2ccccn2)cn2c(-c3ccc(C(=O)NC4CC4)cc3)cnc12 [Example 6-1]
[Q] C/C=C/c1cn2c(-c3ccc(C(=O)NC4CC4)c(Cl)c3)cnc2c(NCc2ccnn2C)n1 [Example 1-13]
Form: Entry with minimum IC50 (choose one): P / Q Pick one and reply with its label. P

---

Molecular target: human kinase Mps-1 (N-terminally GST-tagged human full length recombinant Mps-1 kinase) (Homo sapiens (Human))
Test: Mps-1 Kinase Assay (TR-FRET)
Conditions: 10 μM ATP, 1 μM biotinylated peptide substrate, 60 min at 22° C., read-out: Mps1 IC50
reported.property: IC50 (nM)

Worked examples follow.
CC(C)(C)OC(=O)NC/C=C\CCNc1nc(-c2ccccc2)cn2c(-c3ccc(C(=O)NC4CC4)cc3)cnc12: 12.3
CC(C)(C)OC(=O)NC/C=C/CCNc1nc(-c2ccccc2)cn2c(-c3ccc(C(=O)NC4CC4)cc3)cnc12: 64
C/C=C/c1cn2c(-c3ccc(C(=O)NC4CC4)c(Cl)c3)cnc2c(NCCC(F)(F)F)n1: 34.3

[P] C/C=C/c1cn2c(-c3ccc(C(=O)NC4CC4)c(F)c3)cnc2c(NCC(C)C)n1
[Q] C=C(C)c1cn2c(-c3ccc(C(=O)NC4CC4)cc3)cnc2c(NCC(C)C)n1
[R] C=Cc1ccc(-c2cn3c(-c4ccc(C(=O)NC5CC5)cc4)cnc3c(NCC(C)C)n2)cc1
[S] CC(C)CNc1nc(/C=C2\CCC(=O)N2C)cn2c(-c3ccc(C(=O)NC4CC4)cc3)cnc12
# desc sort on IC50 across 4 compounds // rank by listing labels in the order requested P, R, Q, S

[I] C/C=C/c1cn2c(-c3ccc(C(=O)NC4CC4)c(F)c3)cnc2c(NCCC(F)(F)F)n1
[II] C/C=C/c1cn2c(-c3ccc(C(=O)NC4CC4)cc3)cnc2c(NCC(C)C)n1
Form: Entry with minimum IC50 (choose one): I / II Pick one and reply with its label. II
(II: 6.2 nM, I: 15.4 nM)
